# Tested on: LAPC4 prostate cancer cells, which express the AKT1 E17K allele
# Experiment summary: Antiproliferative effects in LAPC4 cells (CellTiter Glo, 72 h)
# Assay type: cell-based
# Details: Homo sapiens, LAPC4, 72 h, read-out: LAPC4 proliferation IC50: GeoMean IC50
Below, each entry is listed with its recorded IC50.

Past entries and their recorded results:
Nc1ncccc1-c1nc2ccc(-c3ccccc3)nc2n1-c1ccc2c(c1)CCC2C(=O)Nc1ccc(O)c(C=O)c1 (stereo not shown) :: 100 to 2000 nM
Cc1cc(C(=O)N[C@H]2CCc3cc(-n4c(-c5cccnc5N)nc5ccc(-c6ccccc6)nc54)ccc32)cc(C=O)c1O :: 100 to 2000 nM
Cc1cc(-n2cccn2)nc2c1nc(-c1cccnc1N)n2-c1ccc2c(c1)CC[C@@H]2n1cnc2cc(O)c(C=O)cc2c1=O :: 100 to 2000 nM
Nc1ncccc1-c1nc2ccc(-c3ccccc3)nc2n1-c1ccc2c(c1)CC[C@@H]2NC(=O)c1cc(C=O)c(O)cn1 :: ≥ 2000 nM
Nc1ncccc1-c1nc2ccc(-c3ccccc3)nc2n1-c1ccc2c(c1)CC[C@@H]2NC(=O)c1cc(C=O)c2[nH]cnc2c1 :: 10 to 100 nM
Nc1ncccc1-c1nc2ccc(-c3cn[nH]c3)nc2n1-c1ccc2c(c1)CC[C@@H]2NC(=O)c1ccc(O)c(C=O)c1 :: 100 to 2000 nM

Query compound follows.
Could you tell me which IC50 is on file for Cc1cc(-n2cccn2)nc2c1nc(-c1cccnc1N)n2-c1ccc2c(c1)CC[C@@H]2NC(=O)c1cc(C=O)c(O)cc1F ? 10 to 100 nM

* * *

# Measured target: AKT1 WT (Homo sapiens, UniProt P31749)
# Sequence (P31749 whole entry): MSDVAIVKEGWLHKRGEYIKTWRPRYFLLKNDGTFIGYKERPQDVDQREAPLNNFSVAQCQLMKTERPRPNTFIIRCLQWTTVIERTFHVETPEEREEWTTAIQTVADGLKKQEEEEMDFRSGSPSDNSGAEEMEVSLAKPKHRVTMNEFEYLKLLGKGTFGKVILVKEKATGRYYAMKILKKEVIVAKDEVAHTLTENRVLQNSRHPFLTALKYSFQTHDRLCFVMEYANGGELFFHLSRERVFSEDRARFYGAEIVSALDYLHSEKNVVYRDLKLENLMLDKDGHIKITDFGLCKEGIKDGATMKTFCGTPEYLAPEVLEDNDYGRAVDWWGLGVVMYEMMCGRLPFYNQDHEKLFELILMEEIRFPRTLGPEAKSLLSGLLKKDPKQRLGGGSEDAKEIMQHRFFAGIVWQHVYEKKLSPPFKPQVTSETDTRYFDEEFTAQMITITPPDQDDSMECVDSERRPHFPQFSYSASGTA
# Experiment summary: Live cell target engagement by NanoBRET competitive probe displacement, AKT1 WT
# Details: transfected HEK293 cells, 2 h at 37° C., read-out: AKT1 WT IC50: GeoMean IC50
// reported IC50 per item

Worked set:
Nc1ncccc1-c1nc2ccc(-c3ccccc3)nc2n1-c1ccc2c(c1)CC[C@@H]2NC(=O)c1cc(C=O)c(O)c(F)c1F [Example 22] :: 10 to 100 nM
Cc1cc(-c2ncco2)nc2c1nc(-c1cccnc1N)n2-c1ccc2c(c1)CC[C@@H]2NC(=O)c1ccc(O)c(C=O)c1 [Example 211] :: 10 to 100 nM
Cn1cc(-c2ccc3nc(-c4cccnc4N)n(-c4ccc5c(c4)CC[C@@H]5NC(=O)c4ccc(O)c(C=O)c4)c3n2)cn1 [Example 28] :: 10 to 100 nM
Cc1cc(C(=O)N[C@H]2CCc3cc(-n4c(-c5cccnc5N)nc5ccc(-c6ccccc6)nc54)ccc32)cc(C=O)c1O [Example 41] :: 100 to 2000 nM
Nc1ncccc1-c1nc2c(Cl)cc(-n3cccn3)nc2n1-c1ccc2c(c1)CC[C@@H]2NC(=O)c1cc(C=O)c(O)c(F)c1F [Example 212] :: < 10 nM

Could you now look at the following compound, please?
Would you kindly share the measured IC50 for Nc1ncccc1-c1nc2ccc(-c3ccc(F)cc3)nc2n1-c1ccc2c(c1)CC[C@@H]2NC(=O)c1ccc(O)c(C=O)c1 [Example 20] ? 10 to 100 nM

* * *

This listing pairs compounds with measured pIC50.
# Measured target: UniProt:P31751
# Sequence (P31751 whole entry): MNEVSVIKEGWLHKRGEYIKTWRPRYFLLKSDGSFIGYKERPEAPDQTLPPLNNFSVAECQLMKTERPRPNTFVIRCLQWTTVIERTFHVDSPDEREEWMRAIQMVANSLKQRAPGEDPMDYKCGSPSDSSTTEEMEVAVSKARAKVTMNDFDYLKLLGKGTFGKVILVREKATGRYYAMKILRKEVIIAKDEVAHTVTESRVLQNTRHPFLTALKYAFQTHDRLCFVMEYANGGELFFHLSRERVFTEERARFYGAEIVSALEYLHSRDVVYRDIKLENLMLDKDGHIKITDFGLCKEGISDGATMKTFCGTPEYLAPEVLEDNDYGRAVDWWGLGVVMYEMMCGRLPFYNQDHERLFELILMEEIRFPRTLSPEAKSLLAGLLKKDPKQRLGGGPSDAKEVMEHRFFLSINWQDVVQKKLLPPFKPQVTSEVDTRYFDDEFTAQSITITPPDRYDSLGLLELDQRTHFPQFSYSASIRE
# Experiment summary: Live cell target engagement by NanoBRET competitive probe displacement, AKT2
# Details: transfected HEK293 cells, 2 h at 37° C., read-out: AKT2 IC50: GeoMean IC50
pIC50: −log10 of the molar value.

Study these solved cases before continuing.
CSc1ccn(-c2ccc3nc(-c4cccnc4N)n(-c4ccc5c(c4)CC[C@@H]5NC(=O)c4ccc(O)c(C=O)c4)c3n2)n1 [Example 124] :: 5.70 to 7.00
Nc1ncccc1-c1nc2ccc(-c3ccccc3)nc2n1-c1ccc2c(c1)CC[C@@H]2NC(=O)c1cc(F)c(O)c(C=O)c1 [Example 8] :: 5.70 to 7.00
Nc1ncccc1-c1nc2ccc(-n3ccc(C(F)F)n3)nc2n1-c1ccc2c(c1)CC[C@@H]2NC(=O)c1ccc(O)c(C=O)c1 [Example 116] :: 5.70 to 7.00
Nc1ncccc1-c1nc2ccc(-n3ccc(F)n3)nc2n1-c1ccc2c(c1)CC[C@@H]2NC(=O)c1ccc(O)c(C=O)c1 [Example 75] :: 5.70 to 7.00
Nc1ncccc1-c1nc2ccc(-c3ccccc3F)nc2n1-c1ccc2c(c1)CC[C@@H]2NC(=O)c1ccc(O)c(C=O)c1 [Example 21] :: 7.00 to 8.00

Form field: reported pIC50 of N#Cc1cc(-n2cccn2)nc2c1nc(-c1cccnc1N)n2-c1ccc2c(c1)CC[C@@H]2NC(=O)c1ccc(O)c(C=O)c1 [Example 209] 5.70 to 7.00
